Data origin: PubChem BioAssay (Tox21)

Assay: qHTS RealTime-Glo MT Cell Viability Assay in HEK293 cells - 24 hour (AID 1224886); note: top concentration of the series differs between compounds; % is set by controls: 0 for no effect and ±100 for the full control effect; nearly all actives have a fitted effect of over 50% in size
Conditions: RealTime-Glo luminescence; series mostly up to 76.8 µM
Records with an inconclusive call do not appear. Activity calls are given as the source filed them. Calls come from the whole dose curve; as a rule, active = well fitted cell-killing curve with a large enough effect in the repeat runs; inconclusive = weak or mixed curves, or effect the other way; inactive = flat fitted curve, though single readings scatter.
Measure Name: outcome

{"Molecule": "Nc1ccc(Cl)c(Cl)c1", "Observed": "inactive"}
{"Molecule": "COC(=O)c1sccc1S(=O)(=O)NC(=O)Nc1nc(C)nc(OC)n1", "Observed": "inactive"}
{"Molecule": "O=C(Nc1ccc(Br)cc1)c1cc(Br)cc(Br)c1O", "Observed": "inactive"}
{"Molecule": "C=CCN(CC=C)C(=O)C(Cl)Cl", "Observed": "inactive"}
{"Molecule": "CCOCN(C(=O)CCl)c1c(C)cccc1CC", "Observed": "inactive"}
{"Molecule": "CNC(=O)N(C)c1nnc(C(C)(C)C)s1", "Observed": "inactive"}
{"Molecule": "CC1(C)C(C=C(Cl)Cl)C1C(=O)OC(C#N)c1cccc(Oc2ccccc2)c1 (stereo not drawn)", "Observed": "inactive"}
{"Molecule": "c1ccc(P(c2ccccc2)c2ccccc2)cc1", "Observed": "inactive"}
{"Molecule": "CCC(CC)Nc1c([N+](=O)[O-])cc(C)c(C)c1[N+](=O)[O-]", "Observed": "inactive"}
{"Molecule": "CCC(C)c1ccc(O)cc1 (stereo not drawn)", "Observed": "inactive"}

response.value for Cc1cc(Cl)ccc1OCCCC(=O)O (field: outcome) = inactive

response.value for N#Cc1cc(Br)c(O)c(Br)c1 (field: outcome) = inactive

###

Assay: qHTS assay for identifying genotoxic compounds that show differential cytotoxicity against isogenic chicken DT40 cell lines with known DNA damage response pathways - wild type cell line (AID 743012); note: % is set by controls: 0 for no effect and ±100 for the full control effect; nearly all actives have a fitted effect of over 60% in size
Details: DT40 wild type chicken cells viability, CellTiter-Glo, 40 h; series mostly up to 68.4 µM
Records with an inconclusive call do not appear. The source made the active and inactive calls. Calls come from the whole dose curve; as a rule, active = well fitted cell-killing curve with a large enough effect in the repeat runs; inconclusive = weak or mixed curves, or effect the other way; inactive = no such curve, though single readings can be large or run the other way.
Measure Name: outcome

{"Compound": "COc1ccc(C(CN(C)C)C2(O)CCCCC2)cc1 (stereo not drawn)", "Observed": "inactive"}
{"Compound": "Nn1cnnc1", "Observed": "inactive"}
{"Compound": "COP(=S)(OC)Oc1cc(Cl)c(Cl)cc1Cl", "Observed": "inactive"}

###

Molecular target: Glucocorticoid receptor (Homo sapiens) (UniProt P04150)
Sequence (P04150 whole entry, looked up): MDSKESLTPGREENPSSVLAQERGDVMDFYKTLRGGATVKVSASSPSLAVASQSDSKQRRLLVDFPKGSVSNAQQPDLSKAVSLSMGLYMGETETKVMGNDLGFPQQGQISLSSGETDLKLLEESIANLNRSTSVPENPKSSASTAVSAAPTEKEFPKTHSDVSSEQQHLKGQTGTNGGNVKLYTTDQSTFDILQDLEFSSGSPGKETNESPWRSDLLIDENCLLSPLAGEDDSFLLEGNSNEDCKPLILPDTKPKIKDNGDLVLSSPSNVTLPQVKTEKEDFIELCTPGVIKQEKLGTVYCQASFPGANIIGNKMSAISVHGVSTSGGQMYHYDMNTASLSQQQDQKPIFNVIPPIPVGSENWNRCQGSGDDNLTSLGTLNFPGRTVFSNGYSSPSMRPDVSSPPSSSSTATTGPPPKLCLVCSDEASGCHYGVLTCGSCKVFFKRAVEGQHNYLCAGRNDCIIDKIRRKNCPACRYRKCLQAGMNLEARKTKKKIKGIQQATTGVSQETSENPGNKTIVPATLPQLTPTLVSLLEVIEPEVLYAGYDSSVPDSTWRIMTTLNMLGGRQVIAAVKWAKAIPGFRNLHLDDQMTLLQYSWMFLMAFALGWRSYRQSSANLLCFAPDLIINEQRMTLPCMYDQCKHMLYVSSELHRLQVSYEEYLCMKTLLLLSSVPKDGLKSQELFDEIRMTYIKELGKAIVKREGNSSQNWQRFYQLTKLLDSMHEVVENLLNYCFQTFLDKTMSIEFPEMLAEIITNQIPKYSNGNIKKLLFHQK
Assay: qHTS assay to identify small molecule agonists of the glucocorticoid receptor (GR) signaling pathway (AID 720691); for activation: % is set by controls: 0 for no effect and ±100 for the full control effect
Settings: GR-bla HeLa, beta-lactamase reporter ratio, 18 h; series mostly up to 62.4 µM
Results filed as inconclusive are left out. Active and inactive are the calls of the source. Calls come from the whole dose curve; as a rule, active = well fitted activation curve with a large enough effect in the signal ratio in the repeat runs (not every such curve was filed as active); inconclusive = weak or mixed curves, or effect the other way; inactive = no such curve, though single readings can be large or run the other way; the % refers to the signal ratio.
The reply should be one of these categories: class 1 = active, class 0 = inactive

A selection of reference data follows.
{"Compound": "CCOc1cc(Oc2ccc(C(F)(F)F)cc2Cl)ccc1[N+](=O)[O-]", "Class Label": "class 0"}
{"Compound": "CC1(C)C(C=C(Cl)Cl)C1C(=O)OC(C#N)c1cccc(Oc2ccccc2)c1 (configuration not stated)", "Class Label": "class 0"}
{"Compound": "C=CC(=O)OCCO", "Class Label": "class 0"}
{"Compound": "CC(C)C(=O)OCC(C)(C)C(OC(=O)C(C)C)C(C)C (configuration not stated)", "Class Label": "class 0"}
{"Compound": "CCCCCCCCC(=O)NCc1ccc(O)c(OC)c1", "Class Label": "class 1"}

Inquiry: Which result was noted for this compound in the test: CCC(C)c1ccc(O)cc1 (configuration not stated)
Reply text: class 0

Inquiry: Which result was noted for this compound in the test: Nc1c(Cl)cc([N+](=O)[O-])cc1Cl
Reply text: class 0
